Target: MCFD2 (Homo sapiens)
Construct: made in house
Sequence (Q8NI22 27-146): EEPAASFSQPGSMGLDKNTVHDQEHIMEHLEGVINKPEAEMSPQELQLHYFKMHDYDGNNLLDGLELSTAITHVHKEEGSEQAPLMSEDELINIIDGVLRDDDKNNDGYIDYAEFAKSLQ
Assay: NMR titration (peak attenuation) of [15N]FVIII-derived peptide with MCFD2 only
Format: binding
Settings: absence of ERGIC-53CRD, 0.1 mM [15N]FVIII fragment, 0.02–0.3 mM MCFD2, 20 mM MES pH 6.0, 10 mM CaCl2, 150 mM NaCl, 10% D2O, read-out: dissociation constant
READOUT: Kd (µM)

residue_codes="DPPSDLLLLKQSNSSKILVGRWHLASEK [FVIII-derived peptide, FVIII fragment residues Asn776–Asp838, expressed as Ub-fused protein and cleaved with YUH1]" readout=Kd reported_result=120

----------
Target: MCFD2/ERGIC-53^CRD complex (Homo sapiens, UniProt P49257+Q8NI22)
Construct: made in house
Sequence (Q8NI22 27-146): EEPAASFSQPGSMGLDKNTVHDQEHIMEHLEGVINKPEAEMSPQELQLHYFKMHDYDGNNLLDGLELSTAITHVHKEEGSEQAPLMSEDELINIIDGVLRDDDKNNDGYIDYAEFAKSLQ
Sequence (P49257 44-267 partner limits assumed): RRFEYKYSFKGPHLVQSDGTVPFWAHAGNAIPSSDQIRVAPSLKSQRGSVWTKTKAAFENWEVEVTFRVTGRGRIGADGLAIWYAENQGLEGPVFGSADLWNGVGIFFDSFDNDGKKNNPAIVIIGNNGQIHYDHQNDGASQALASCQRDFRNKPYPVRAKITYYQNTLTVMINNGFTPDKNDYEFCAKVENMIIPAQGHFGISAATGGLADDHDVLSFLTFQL
Test: NMR titration (peak attenuation) of [15N]FVIII-derived peptide with MCFD2/ERGIC-53CRD
Assay type: binding
Conditions: NMR peak attenuation; 0.1 mM [15N]FVIII fragment titrated with 0.02–0.3 mM MCFD2/ERGIC-53CRD; 20 mM MES pH 6.0, 10 mM CaCl2, 150 mM NaCl, 10% D2O; read-out: dissociation constant
READOUT: Kd (µM)

residue_codes="DPPSDLLLLKQSNSSKILVGRWHLASEK [FVIII-derived peptide, FVIII fragment residues Asn776–Asp838, expressed as Ub-fused protein and cleaved with YUH1]" test_target="MCFD2/ERGIC-53^CRD complex (Homo sapiens, UniProt P49257+Q8NI22)" unit=µM reported_result=11

Taken from paper PMC7069976.
